target: MANEAL; assay: pooled miR-30 sensor sort-seq; sequence = guide strand; conditions: shRNA; further: reference of the scale not given here
readoutKind: sensor-assay potency score (higher = more potent)
Give the figure by itself; no unit, no explanation.

Need sensor-assay potency score (higher = more potent) of TAGTACTTGCCATTGACCCTGT , thanks. -0.0343

// repeat for TTGATGAAGTGCTCCGCCCAGC and report -0.595

// repeat for TTGTGGTTGTTCCAGGGCCGAA and report -1.8

// repeat for TTTGATGAAGTGCTCCGCCCAG and report -0.378

// repeat for ATAGTACTTGCCATTGACCCTG and report -0.405

// repeat for TAGCTGGCCGAGATCTTGGGGT and report -1.02

// repeat for TACCACGAGTAGTAGAAGGCGT and report -0.339

// repeat for ATGAACATGAGGTTGTTGGCAT and report 0.179

// repeat for TAGAAGGCGTGCAGGTCCGAGT and report -1.05
